The origin of these recorded values is patent EP4806435A1.

assay: Phase 1 clinical trial: plasma pharmacokinetics; assay type: in vivo, human; details: human, plasma, oral, 20 mg, Cycle 2 Day 1; 20 mg, QD; cut-off April 2023; read-out: Cmax (mean)
quantity.measured: Cmax (ng/mL)

smiles_repr=CC1(C)Oc2cc(Cl)ccc2[C@@H]2OCC3(CCN(CCn4ccnc4)CC3)C[C@H]21 quantity_measured=Cmax result_unit=ng/mL measurement=28

* * *

experiment: Phase 1 clinical trial: plasma pharmacokinetics; format: in vivo, human; details: human, plasma, oral, 80 mg, Cycle 2 Day 1; 80 mg, QD; cut-off April 2023; read-out: Tmax (median)
quantity.measured: Tmax (h)

compound="CC1(C)Oc2cc(Cl)ccc2[C@@H]2OCC3(CCN(CCn4ccnc4)CC3)C[C@H]21 [Compound 1]" result_unit=h measurement=8

* * *

Assay: Phase 1 clinical trial: plasma pharmacokinetics
Type: in vivo, human
Settings: human, plasma, oral, 80 mg, 80 mg QD; cut-off March 2024; read-out: Effective T1/2 (converted)
Method: Summary statistics based on preliminary data were obtained for the pharmacokinetics of Compound 1 in patients receiving once-daily doses ranging from 20 mg to 240 mg (Table 5). The mean plasma concentration-time curves of Compound 1 in the once-daily dose groups ranging from 20 mg to 240 mg are shown in Figure 11. In this study, one cycle consists of 28 days, and Cycle 1 Day 1 refers to Day 1 of the first cycle. […] Accumulation was observed after repeated administration. […]
quantity.measured: half-life (h)

compound="CC1(C)Oc2cc(Cl)ccc2[C@@H]2OCC3(CCN(CCn4ccnc4)CC3)C[C@H]21 [Compound 1]" measurement=64.8

* * *

test: Phase 1 clinical trial: plasma pharmacokinetics; type: in vivo, human; conditions: human, plasma, oral, 20 mg, 20 mg QD; cut-off March 2024; read-out: Effective T1/2 (converted)
quantity.measured: half-life (h)

compound="CC1(C)Oc2cc(Cl)ccc2[C@@H]2OCC3(CCN(CCn4ccnc4)CC3)C[C@H]21 [Compound 1]" measurement=113

* * *

assay: Phase 1 clinical trial: plasma pharmacokinetics; format: in vivo, human; settings: human, plasma, oral, 240 mg, Cycle 1 Day 1; 240 mg, QD; cut-off April 2023; read-out: Cmax (mean)
quantity.measured: Cmax (µg/mL)

compound="CC1(C)Oc2cc(Cl)ccc2[C@@H]2OCC3(CCN(CCn4ccnc4)CC3)C[C@H]21 [Compound 1]" result_unit=µg/mL measurement=0.153

* * *

assay: Phase 1 clinical trial: plasma pharmacokinetics; format: in vivo, human; details: human, plasma, oral, 40 mg, Cycle 1 Day 1; 40 mg, QD; cut-off April 2023; read-out: Tmax (median)
quantity.measured: Tmax (h)

smiles_repr=CC1(C)Oc2cc(Cl)ccc2[C@@H]2OCC3(CCN(CCn4ccnc4)CC3)C[C@H]21 measurement=8

* * *

assay: Phase 1 clinical trial: plasma pharmacokinetics; type: in vivo, human; details: human, plasma, oral, 40 mg, Cycle 2 Day 1; 40 mg, QD; cut-off April 2023; read-out: AUC0-24 (geometric mean)
quantity.measured: AUC(0-t) (ng·h/mL)

compound="CC1(C)Oc2cc(Cl)ccc2[C@@H]2OCC3(CCN(CCn4ccnc4)CC3)C[C@H]21 [Compound 1]" measurement=1110

* * *

assay: Phase 1 clinical trial: plasma pharmacokinetics; format: in vivo, human; conditions: human, plasma, oral, 120 mg, Cycle 2 Day 1; 120 mg, QD; cut-off April 2023; read-out: Cmax (mean)
quantity.measured: Cmax (ng/mL)

smiles_repr=CC1(C)Oc2cc(Cl)ccc2[C@@H]2OCC3(CCN(CCn4ccnc4)CC3)C[C@H]21 measurement=156
